B1: Segment polarity protein dishevelled homolog DVL-3, residues 2 to 81; numbered along this chain, Q92997 (parent)
chain: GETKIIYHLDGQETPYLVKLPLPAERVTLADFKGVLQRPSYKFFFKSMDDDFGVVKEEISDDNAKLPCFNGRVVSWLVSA

# Variants of: B1
# assayRemarks: abundance fitness (aPCA) (normalised: wild type 0, dead -1); higher = more abundant; growth selection in yeast, the domain comes from the species named
# runParameters: Homo sapiens
parameter: abundance fitness

    mutation  result
 0      D50P  -0.016
 1      R38A   0.009
 2      Q37I  -0.179
 3      V78G  -0.558
 4      D51H   0.058
 5      R38V  -0.024
 6      F44I  -0.624
 7      S60R  -0.273
 8      P21M  -0.426
 9      V35D  -0.892
10      T28D  -0.401
11      A24F  -0.549
12      K65N  -0.139
13      P23F  -0.405
14      K65S  -0.195
15      G53K   0.482
16      V74F  -0.066
17      Q37D   0.225
18      N70M  -0.374
19      W76Q  -0.943
20      I59W  -0.724
21      V54T  -0.178
22      N70A  -0.602
23      A24C  -0.107
24      A80G   0.014
